Tested on: HeLa nuclear extract
Format: biochemical
Settings: read-out: IC50 of HeLa extract; n ≥ 2, mean ± SD
value kind: IC50

O=C(/C=C/c1ccc(OC[C@H](Cc2c[nH]c3ccccc23)NS(=O)(=O)c2ccc(-c3ccccc3)cc2)cc1)NO [11h] = > 5 µM
